Test: soluble on expression in E. coli; label from the status in PepcDB or PDB records

- Construct sequence: "MEKRGVIDTWIDKHRSIYTAATRHAFVVSIRDGSVDLSSFRTWLGQDYLFVRRFVPFVASVLIRACKDSGESSDMEVVLGGIASLNDEIEWFKREGSKWDVDFSTVVPQRANQEYGRFLEDLMSSEVKYPVIMTAFWAIEAVYQESFAHCLEDGNKTPVELTGACHRWGNDGFKQYCSSVKNIAERCLENASGEVLGEAEDVLVRVLELEVAFWEMSRGGQ"
  soluble on expression in E. coli: "soluble"
- Construct sequence: "GPGSMWALTCRPIQNTEALQLMERYKAHNALQSNQWLLPRHLACFAVRPLYPAQLVLPTSSVIRLPLSAVPFSSLPLSRKREVFGLYPPPCTPPGSCSLLECSGAAMRWRPASLSECFDAAFVRSDSPSSHQHLLCATDCAGSVTVAEEVTVFNAQETNNPFLVDADLVHRNLLTKEAYEHSIGSSLTTIAAQFRYTSFEWVEATAAAAVGLRVRSSAAPHLVNCVDMLRVVHISQLPYTRQQELVAEIPRMTLIKSMTISYIFYHTRWRHHKSMELMRPLLHSNIPCCDTPQAQALQPLLWIAVDLDMEFRGPVMECARHSRTQFYNSQQLEVDTCAVPSRS"
  soluble on expression in E. coli: "soluble"
- Construct sequence: "STRFPGVAIYLVEPRMGRSRRAFLTGLARSKGFRVLDACSSEATHVVMEETSAEEAVSWQERRMAAAPPGCTPPALLDISWLTESLGAGQPVPVECRHRLEVAGPRKGPLSPAWMPAYAC"
  soluble on expression in E. coli: "soluble"
